Value source: paper PMC3287420

TESTED_TARGET: MYLK (Homo sapiens)
Sequence (Q15746 whole entry, species assumed): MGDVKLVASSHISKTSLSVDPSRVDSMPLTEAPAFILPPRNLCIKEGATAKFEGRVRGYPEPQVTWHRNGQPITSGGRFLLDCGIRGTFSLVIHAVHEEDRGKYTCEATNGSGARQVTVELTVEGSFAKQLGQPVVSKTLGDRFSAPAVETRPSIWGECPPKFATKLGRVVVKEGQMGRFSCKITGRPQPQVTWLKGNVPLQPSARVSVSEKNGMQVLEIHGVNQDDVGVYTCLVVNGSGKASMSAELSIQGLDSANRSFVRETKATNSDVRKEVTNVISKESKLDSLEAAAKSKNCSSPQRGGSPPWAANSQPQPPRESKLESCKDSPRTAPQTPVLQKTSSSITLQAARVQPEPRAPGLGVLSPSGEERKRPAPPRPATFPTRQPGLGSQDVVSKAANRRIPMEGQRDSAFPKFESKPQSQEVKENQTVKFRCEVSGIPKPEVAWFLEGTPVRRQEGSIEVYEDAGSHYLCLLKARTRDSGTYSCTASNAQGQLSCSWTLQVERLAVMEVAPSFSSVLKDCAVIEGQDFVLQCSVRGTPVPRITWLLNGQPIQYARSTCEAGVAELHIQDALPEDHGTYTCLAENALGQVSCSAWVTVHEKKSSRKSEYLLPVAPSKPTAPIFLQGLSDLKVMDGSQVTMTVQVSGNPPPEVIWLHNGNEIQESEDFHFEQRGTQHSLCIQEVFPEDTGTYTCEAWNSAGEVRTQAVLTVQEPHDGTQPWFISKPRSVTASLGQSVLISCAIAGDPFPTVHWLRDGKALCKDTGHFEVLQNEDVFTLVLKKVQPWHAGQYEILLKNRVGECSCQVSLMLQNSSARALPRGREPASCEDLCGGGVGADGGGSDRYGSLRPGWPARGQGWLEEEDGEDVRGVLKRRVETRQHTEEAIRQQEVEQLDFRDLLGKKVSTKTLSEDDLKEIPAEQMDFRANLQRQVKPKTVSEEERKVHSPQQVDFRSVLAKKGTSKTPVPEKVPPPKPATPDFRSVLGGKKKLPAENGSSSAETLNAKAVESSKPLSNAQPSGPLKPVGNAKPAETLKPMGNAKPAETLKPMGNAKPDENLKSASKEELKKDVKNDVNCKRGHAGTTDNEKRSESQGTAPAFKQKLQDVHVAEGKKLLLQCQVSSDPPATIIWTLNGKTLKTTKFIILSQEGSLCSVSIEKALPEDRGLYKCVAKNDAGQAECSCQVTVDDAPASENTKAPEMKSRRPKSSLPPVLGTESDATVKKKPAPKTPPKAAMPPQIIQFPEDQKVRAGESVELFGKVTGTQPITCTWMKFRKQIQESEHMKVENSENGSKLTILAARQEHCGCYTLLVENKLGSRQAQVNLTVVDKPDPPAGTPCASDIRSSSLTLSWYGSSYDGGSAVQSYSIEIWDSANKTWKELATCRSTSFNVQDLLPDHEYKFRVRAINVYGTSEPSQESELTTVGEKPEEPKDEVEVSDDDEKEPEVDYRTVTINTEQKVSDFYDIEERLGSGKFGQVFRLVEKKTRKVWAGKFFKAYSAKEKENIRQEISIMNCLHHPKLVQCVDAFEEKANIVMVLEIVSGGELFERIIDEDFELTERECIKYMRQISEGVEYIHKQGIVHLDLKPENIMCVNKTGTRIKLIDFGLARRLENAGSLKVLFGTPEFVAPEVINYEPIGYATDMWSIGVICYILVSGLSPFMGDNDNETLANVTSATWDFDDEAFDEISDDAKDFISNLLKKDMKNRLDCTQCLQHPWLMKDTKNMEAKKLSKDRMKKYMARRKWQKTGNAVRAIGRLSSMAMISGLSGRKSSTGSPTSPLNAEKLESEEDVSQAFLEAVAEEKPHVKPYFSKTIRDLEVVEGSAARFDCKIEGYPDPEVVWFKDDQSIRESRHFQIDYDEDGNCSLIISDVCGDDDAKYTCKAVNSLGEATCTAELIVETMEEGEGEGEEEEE
PROTOCOL_TEXT: Invitrogen SelectScreen biochemical assay
ENDPOINT_NAME: IC50

Q) // lookup IC50 for COc1cc(C(=O)N2CCC(N3CCN(C)CC3)CC2)ccc1Nc1ncc2c(n1)N(C)c1ccccc1C(=O)N2C [LRRK2-IN-1]
A) > 1000 nM

* * *

PROTOCOL_TEXT: Pharmacokinetics in mice
Assay type: in vivo
TEST_CONTEXT: mouse, plasma, po, 10 mg/kg
ENDPOINT_NAME: AUC(0-inf) (ng·h/mL)
Give just the numeric value; ng·h/mL need not be written.

Q) # query: AUC(0-inf) of entry `COc1cc(C(=O)N2CCC(N3CCN(C)CC3)CC2)ccc1Nc1ncc2c(n1)N(C)c1ccccc1C(=O)N2C`
A) 14800
